Target: T1, human MSLN-R2-his protein (human, UniProt Q13421 391-486)
T1 construct: it is put last here; also called human MSLN-R2 protein; hMSLN-R2-his; not shown: His tag
T1 sequence (Q13421 other isoform, or with tags, fused parts or gaps): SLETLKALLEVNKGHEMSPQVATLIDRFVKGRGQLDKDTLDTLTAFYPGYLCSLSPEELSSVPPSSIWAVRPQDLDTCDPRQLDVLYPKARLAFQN
Experiment: ELISA on coated antigen, antibody 200 nM
This listing pairs binders with measured OD450.
Your answer should be a plain number; it is taken to be in OD.

A selection of reference data follows.
S009-F7.66.12 (antibody, human IgG1, kappa, V domains shown, Human-murine chimeric antibody, human IgG1 heavy and kappa light constant regions) VH: QIPLQQSGPELVKPGASVRISCKASDYAFSSSWMNWVKQRPEKGLEWIGRIFVESGNTHYNDKFNGKATLTADKSSRTAYIQLSSLTSEDSAVYFCTRENIFYHGHSSWFAYWGQGTLVTVSA VL: DIVLTQSPASLVVSLGQRATISCRAGESVDDFGISYVHWYQQKPGQPPKLLIYRAANLESGIPARFSGSGSRTDFTLTINPVETDDVAIYYCQQNNKDPFTFGSGTKLEIKR; 0.28
S009-F7.48.1 (antibody, human IgG1, kappa, V domains shown, Human-murine chimeric antibody, human IgG1 heavy and kappa light constant regions) VH: QVQLQQPGTELVKPGASVKLSCKASGYTFTSYWMHWVKQRPGQGLEWIGNINPSNGGTNNNENFKSKATLTVDTSSSTAYMQLSSLTSEDSAVYYCVRNGYHGYWYFDVWGTGTTVTVSS VL: DIVMTQSQKFMSTSVGDRVSVTCKASQNVGTNVAWYQQQPGQSPKALIYSASYRYSGVPDRFTGSVSGTDFTLTISNVQSEDLAEYFCQQYNSYPLTFGGGTKLEIKR; 0.09

In plain terms, S009-F7.18.10 (antibody, human IgG1, kappa, V domains shown, Human-murine chimeric antibody, human IgG1 heavy and kappa light constant regions) VH: QVQLQQSGAELVRPGTSVKVSCKASGYAFTNYLIEWVKQRPGQGLEWIGVINPGSGGTKYNEKFKGKATLTADKSSSTAYMQLSSLTSEDSAVYFCASDYDYDPFAYWGQGTLVTVSA VL: DIVMTQSHKFMSTSVGDRVSITCKASQDVSTAVAWYQRKPGQSPKLLIYWASTRHTGVPDRFTGSGSGTDYTLTISYMQAEDLALYYCQQHYSTPYTFGGGTKLEIKR has a documented OD450 of 0.14
